# protocolText: Cytotoxicity analysis (MTS)
# Format: cell-based, human
# appliedConditions: human, differentiated sh-sy5y cells, neuronal cells, read-out: non-toxic concentration
parameterMeasured: MNTC at 24 h (µg/mL)
All answers are understood in µg/mL, so give the number only.

For O.O.O.O.O.O=BO[B-](OB=O)(OB=O)OB=O.[Na+] the compound record lists MNTC at 24 h as 5

Every entry's value here was drawn from patent US20260325575A1.
